Reported values of IC50, pseudovirus entry assay (luciferase, HEK 293T-ACE2 cells) for individual entries
# measured.on: SARS-CoV-2 Spike (S) protein on vesicular stomatitis virus (VSV) pseudoviruses (SARS-CoV-2, UniProt P0DTC2 14-1273)
# assay.method.text: cell-based or functional assay
Please give a number only; it is taken to be in µg/mL.

Some solved entries appear below for comparison.
[[record]]
binder = "NI-607.532_F3 (antibody, V domains shown) VH: EVQLVQSGAEVKKPGESLKISCKGFGYIFSNDWIGWVRQKPGKGLEWMGIIYPGDSDTRYSPSFRGQVTISADKSVSTAYLQWDSLKASDTAVYYCTRPRYTTMIVGSNPFDVWGQGTTVTVSS VL: QSVLTQPPSVSGAPGQRVTISCTGSSSNIGGGYDVHWYQKLPGTAPKLLIFDNDNRPSGVPDRFSGSKSDTSASLTITGLQAEDEADYFCQSYDSSLSGSGVVFGGGTKLTVL"
unit_of_measurement = "µg/mL"
readout_value = 11.7

[[record]]
binder = "NI-607.429_E4 (antibody, V domains shown) VH: QVQLVESGGGLVQPGGSLRLSCAASGFTVSSNYMSWVRQAPGKGLEWVSVIYSGGSTFYADSVKGRFTISRDNSKNTLYLQMNSLRAEDTAVYYCARDLQESGMDVWGQGTTVTVSS VL: DIQLTQSPSSVSASVGDRVTITCRASQGISSWLAWYQQKPGKAPKLLIYAASSLQSGVPSRFSGSGSGTDFTLTISSLQPEDFATYYCQQANSFPTFGQGTRLEIK"
unit_of_measurement = "µg/mL"
readout_value = 0.035


Look up and state reported IC50, pseudovirus entry assay (luciferase, HEK 293T-ACE2 cells) for NI-607.532_F9 (antibody, V domains shown) VH: EVQLVESGGNLIQPGGSLRLSCAASGFTVSSNYMSWVRQAPGKGLEWVSVIYSGGSTYYADSVKGRFTISRDNSRNTLYLQMNSLRAEDTAVYFCARDRVVRGVRGNGMDVWGQGTTVTVSS VL: AIRMTQSPSSLSASVGDRVTITCQASQDINIYLNWYQQRPGKAPKLLIYDASNLETGVPSRFSGSGSGTDFTFTISSLQPEDIATYYCHQYDNLPRTFGQGTKVDIK
0.364

Look up and state reported IC50, pseudovirus entry assay (luciferase, HEK 293T-ACE2 cells) for NI-607.531_E7 (antibody, V domains shown, also called F31 E7) VH: EVQLVESGGGVVQPGRSLRLSCAASGFTFNFYSMHWVRQVPGKGLEWVAVISFDGSTKHYAESLRGRFAVSRDNSKSTLYLQMNSLRPEDTAVYYCASPPLSPIPAAGTPLDYWGQGTLVTVSS VL: EIVMTQSPDSLAVSLGERATINCKSSQSIFYRSDDKDFLAWYQQKPGQPPKLLISWASTRESGVPDRFSGSGSGTDFTLTISSLQAEDVAVYYCQQFYYTPFTFGPGTKLEIK
3.9

Look up and state reported IC50, pseudovirus entry assay (luciferase, HEK 293T-ACE2 cells) for NI-607.429_B9 (antibody, V domains shown) VH: EVQLVESGGGLVQPGGSLRLSCAASGFTFSSYWMSWVRQAPGKGLEWVANIKQDGSEKYYVDSVKGRFTISRDNAKNSLYLQMNSLRAEDTAVYYCASLFWRRGSFDPWGQGTLVTVSS VL: QSVLTQPHSVSESPGKTVTISCTRSTGSIASNYVQWYQQRPGSAPTTVIYEDNQRPSGVPDRFSGSIDSSSNSASLTISGLKTEDEADYYCQSYDTSSYWVFGGGTKLTVL
7.1

Look up and state reported IC50, pseudovirus entry assay (luciferase, HEK 293T-ACE2 cells) for NI-607.532_C11 (antibody, V domains shown) VH: QVQLVESGGGLIQPGGSLRLSCAASGFTVSSNYMSWVRQAPGKGLEWVSVIYSGGSTYYADSVKGRFTISRDNSKNTLFLQMNSLRAEDTAVYYCARDLQYYGMDVWGQGTTVTVSS VL: DIQMTQSPSFLSASVGDRVTITCRASQGISSYLAWYQQKPGKAPKLLIYAASTLQSGVPSRFSGSGSGTEFTLTISSLQPEDFATYYCQQLDSYPPRDTFGQGTKVEIK
0.0872

Look up and state reported IC50, pseudovirus entry assay (luciferase, HEK 293T-ACE2 cells) for NI-607.529_B9 (antibody, V domains shown) VH: QVQLQESGPGLVKPSETLSLTCTVSGGSISSSSYYWGWIRQPPGKGLEWIGNIYYSGSTYYNPSLKSRVTISVDTSKNQFSLKLNSVTAADTAVYFCARLLWLRGSYYWGQGTLVTVSS VL: SYELTQPHSVSESPGKTVTISCTGSSGSIASNYVQWYQQRPGSAPTTVIYEDNQRPSGVPDRFSGSIDSSSNSASLTISGLKTEDEADYYCQSYDSSNWVFGGGTKLTVL
1.9

Look up and state reported IC50, pseudovirus entry assay (luciferase, HEK 293T-ACE2 cells) for NI-607.532_B6 (antibody, V domains shown) VH: QVQLVQSGAEVKKPGASVKVSCKASGYTFTSYDINWVRQATGQGLEWMGWMNPNSGNTGYAQKFQGRVTMTRNTSISTAYMELSSLRSEDTAVYYCARVVSLTGFFDYWGQGTLVTVSS VL: SYELTQPPSVSVAPGKTARITCGGNNIGSKNVHWYQQKPGQAPVLVVYDDSDRPSGIPERFSGSNSGNTATLTISRVEAGDEADYYCQVWDSSSDPWVFGGGTKLTVL
100
